# Test system: CD45+ leukocyte, Iba1+ macrophage/microglia, GFAP+ astrocytes
# EXPERIMENT SUMMARY: CD45, Iba1 and GFAP staining in thoracic spinal cord dorsal column of EAE mice
# Type: in vivo, mouse
# Set-up: key: CD45 / CNS Cellular Inflammation: Iba1 / CNS Cellular Inflammation: GFAP: ‘+’ indicate marker was significantly (p ≤ 0.05) increased in treatment group relative to vehicle; ‘−’ indicates marker was significantly (p ≤ 0.05) decreased in treatment group relative to vehicle; ○: ‘o’ indicate marker did not change relative to vehicle
# PARTICULARS: Post (therapeutic, postEAE) treatment of EAE mice, vs vehicle
MEASURE NAME: CNS Cellular Inflammation: GFAP

{"COMPOUND": "Oc1ccc(-n2nc3ccc(O)cc3c2Cl)c(Cl)c1", "OBSERVED": "○"}
{"COMPOUND": "Oc1ccc(-n2nc3ccc(O)cc3c2Cl)cc1", "OBSERVED": "○"}
{"COMPOUND": "C[C@]12CC[C@@H]3c4ccc(O)cc4CC[C@H]3[C@@H]1CC[C@@H]2O [E2, 170 estradiol]", "OBSERVED": "○"}
{"COMPOUND": "Cc1cc(O)ccc1-n1nc2ccc(O)cc2c1Cl", "OBSERVED": "○"}

The measurements presented in this section are drawn from patent US11673866B2.
